# protocol.summary: Half life in mouse at 2 mg/kg, iv
# Format: ADME, organism-based
# condition: in vivo

# smiles.string, half-life
records = [
    ("O=C(N1CC[C@@]2(S(=O)(=O)c3ccc(F)cc3)c3ccc(C(F)(C(F)(F)F)C(F)(F)F)cc3CC[C@@H]12)C1(O)CCS(=O)(=O)CC1", "900 min"),
]

----------
# target.of.assay: UniProt Q13133
# protocol.summary: Activity at LXRalpha (unknown origin)
readout.name: IC50

# smiles.string, reported
records = [
    ("C[C@]1(C(=O)O)CC[C@H](C(=O)N2CC[C@@]3(S(=O)(=O)c4ccc(F)cc4)c4ccc(C(F)(C(F)(F)F)C(F)(F)F)cc4CC[C@@H]23)CC1", "> 10 µM"),
    ("O=C(O)[C@H]1CC[C@H](C(=O)N2CC[C@@]3(S(=O)(=O)c4ccc(F)cc4)c4ccc(C(F)(C(F)(F)F)C(F)(F)F)cc4CC[C@@H]23)CC1", "> 10 µM"),
    ("O=C(O)[C@H]1CC[C@](F)(C(=O)N2CC[C@@]3(S(=O)(=O)c4ccc(F)cc4)c4ccc(C(F)(C(F)(F)F)C(F)(F)F)cc4CC[C@@H]23)CC1", "> 10 µM"),
]

----------
# protocol.summary: Oral bioavailability in rat at 4 mg/kg
# Assay type: ADME, organism-based
# condition: in vivo
readout.name: bioavailability (%)

# smiles.string, readout.name, reported
measured = [
    ("O=C(N1CC[C@@]2(S(=O)(=O)c3ccc(F)cc3)c3ccc(C(F)(C(F)(F)F)C(F)(F)F)cc3CC[C@@H]12)C1(O)CCS(=O)(=O)CC1", "bioavailability", 50),
]

----------
// reported pIC50 for each item listed
# target.of.assay: Oxysterols receptor LXR-alpha (Homo sapiens, UniProt Q13133)
# Sequence (Q13133 whole entry): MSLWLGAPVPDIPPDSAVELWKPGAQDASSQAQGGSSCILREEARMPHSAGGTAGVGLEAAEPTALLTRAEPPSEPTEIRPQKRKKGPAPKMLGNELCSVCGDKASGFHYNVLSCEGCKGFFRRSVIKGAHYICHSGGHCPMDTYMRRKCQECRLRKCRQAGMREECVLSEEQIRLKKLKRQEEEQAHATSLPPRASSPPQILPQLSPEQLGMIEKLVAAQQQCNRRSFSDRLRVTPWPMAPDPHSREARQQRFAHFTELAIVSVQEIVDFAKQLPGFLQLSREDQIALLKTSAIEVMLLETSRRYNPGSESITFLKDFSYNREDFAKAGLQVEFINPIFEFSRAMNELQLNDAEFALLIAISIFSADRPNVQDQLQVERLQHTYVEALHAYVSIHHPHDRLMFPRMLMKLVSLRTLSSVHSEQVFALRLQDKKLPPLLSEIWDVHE
pIC50: −log10 of the molar value.
readout.name: pIC50

# smiles.string, readout.name, reported
rows = [
    ("O=C(O)[C@H]1CC[C@](O)(C(=O)N2CC[C@@]3(S(=O)(=O)c4ccc(F)cc4)c4ccc(C(F)(C(F)(F)F)C(F)(F)F)cc4CC[C@@H]23)CC1", "pIC50", "< 5.00"),
    ("CCCN1C[C@H]2N(C(=O)[C@H]3CC[C@H](C(=O)O)CC3)CC[C@@]2(S(=O)(=O)c2ccc(F)cc2)c2ccc(C(F)(C(F)(F)F)C(F)(F)F)cc21", "pIC50", "< 5.00"),
    ("O=C(O)[C@H]1CC[C@H](C(=O)N2CC[C@@]3(S(=O)(=O)c4ccc(F)cc4)c4ccc(C(F)(C(F)(F)F)C(F)(F)F)cc4NC[C@@H]23)CC1", "pIC50", "< 5.00"),
    ("O=C(O)C12CC(C(=O)N3CC[C@@]4(S(=O)(=O)c5ccc(F)cc5)c5ccc(C(F)(C(F)(F)F)C(F)(F)F)cc5CC[C@@H]34)(C1)C2", "pIC50", "< 5.00"),
]

src = ChEMBL document CHEMBL4334512
